Documented growth across a set of molecules
- Test system: HCT-15 colon
- PROTOCOL DESCRIPTION: NCI-60 one-dose screen, 48 h (100 = growth as untreated, 0 = no growth, -100 = all killed)
- EXPERIMENTAL SETUP: 10 µM
Compounds without any hit were thinned out: in the full panel of roughly 83,000, 20% have a hit.
MEASUREMENT LABEL: growth (%)

MOLECULE	UNIT OF MEASUREMENT	READING
CN1C(=O)CN2CCc3ccccc3C2c2cc(Cl)ccc21 (stereo unspecified)	%	89.7
COc1ccccc1C1OC2=Nc3cc(C)c(C)cc3NC2C1=O (stereo unspecified)	%	80.8
CC1(C)/C(=C\CO)C2CCC1C2 (stereo unspecified)	%	105
S=c1sc2ccccc2n1CN1CCCCC1	%	102
CC(C)(C)c1cc(O)c(C(C)(C)C)cc1O	%	97.9
C=CC[N+](C)(C)C	%	98.7
CC1(c2ccccc2)NC(=O)NC1=O (stereo unspecified)	%	110
CC(=O)OCC1=CC2OC(=O)C3=COC(OC4OC(CO)C(O)C(O)C4O)C1C32 (stereo unspecified)	%	112
CCC(O)CC(CC)CO (stereo unspecified)	%	104
O=S(=O)(O)c1ccc(O)c2ccccc12	%	113
CCOc1ccc(I)cc1	%	103
COC(=O)Nc1nc2ccc(C(=O)c3ccc(F)cc3)cc2[nH]1	%	5.81
COC(=O)Nc1nc2ccc(C(=O)c3cccs3)cc2[nH]1	%	10.8
Cc1cc(O)ccc1O	%	108
CCOC(=O)CNN	%	108
COC(=O)C(O)c1ccccc1 (stereo unspecified)	%	105
C=CC(O)CCC (stereo unspecified)	%	98
COc1ccc(C(O)c2ccccc2)cc1 (stereo unspecified)	%	100
N=c1c(C(=O)OCc2ccccc2)ncc(CCl)n1O	%	99.7
COc1cc(OC)c2ccc(=O)oc2c1	%	96.4
O=C(OCC(O)C1OC(c2ccccc2)OC(COC(=O)c2ccccc2)C1O)c1ccccc1 (stereo unspecified)	%	96.6
COc1ccccc1N=Nc1c(O)ccc2cc(S(=O)(=O)O)ccc12	%	107
Cc1cc2nc(CO)[nH]c2cc1C	%	107
CO[C@H]1C[C@@H]2CC[C@@H](C)[C@@](O)(O2)C(=O)C(=O)N2CCCC[C@H]2C(=O)O[C@H]([C@H](C)C[C@@H]2CC[C@@H](O)[C@H](OC)C2)CC(=O)[C@H](C)C=C(C)[C@@H](O)[C@@H](OC)C(=O)[C@H](C)C[C@H](C)/C=C/C=C/C=C1C	%	42.7
O=C(O)CCCc1ccccc1	%	101
O=C(CCNNC(=O)c1ccncc1)NCc1ccccc1	%	81.8

* * *

- Tested on: HOP-62 NSCLC
- PROTOCOL DESCRIPTION: NCI-60 one-dose screen, 48 h (100 = growth as untreated, 0 = no growth, -100 = all killed)
- EXPERIMENTAL SETUP: 10 µM
Compounds without any hit were thinned out: in the full panel of roughly 83,000, 20% have a hit.

MOLECULE	growth, %
C=C1CC/C=C(\C)C(=O)C[C@@H]2[C@@H]1CC2(C)C	119
Cc1ccc(C(=O)c2ccccc2)c(C)c1	95
CC(=O)Nc1ccc(NC(C)=O)c2c1C(=O)c1ccccc1C2=O	81.9
OC1OC(COC(c2ccccc2)(c2ccccc2)c2ccccc2)C(O)C(O)C1O (configuration not stated)	107
COC(=O)c1ccccc1N(C)C	89.7
Cc1ccc(C)n1-c1ccsc1C(=O)NNC(=O)CCl	101
CCCC[P+](c1ccccc1)(c1ccccc1)c1ccccc1	80.2
Nc1ccc(NC(=O)c2cccc(N)c2)cc1	86.5
CCCC(C)OCC(=O)O (configuration not stated)	111
CCOC(=O)CSc1c([N+](=O)[O-])ncn1C	98.6
COC(=O)C(C)Oc1ccc(OC#N)cc1 (configuration not stated)	98.2
O=c1[nH]nc(SC2CCCCC2)c(=O)[nH]1	93.7
Cc1ccc(C(=O)N/N=C/c2ccc3c(c2)OCO3)cc1	97.5
CCCNc1ccc(C2=NCCCN2)cc1	94.9
COc1ccc(C(C)C=O)cc1 (configuration not stated)	107
CCOc1ccc(Br)cc1/C=N\N=C\c1cc(Br)ccc1OCC	108
C/C(=N/NC(N)=O)c1ccco1	85.7
O=C(c1ccccc1)C1CCC1	94.5
CC(=O)c1sc2c(c1OC(=O)c1ccc(Cl)cc1Cl)c(=O)n(-c1ccccc1)c(=S)n2-c1ccccc1	9.38
CN(C)CCC(=O)c1ccc(O)cc1	107
OCc1ccc(-c2ccc(-c3ccc(CO)s3)o2)s1	67.1
O=[N+]([O-])c1ccccc1N=Nc1ccc(O)cc1O	106
CC(=O)Nc1cccc(Cl)c1C	100
Cc1cc(OCCO)cc(C)c1Cl	111
O=C(CCl)Nc1ccc2c(c1)C(=O)c1ccc(NC(=O)CCl)cc1C2=O	-64.7
CC1=NN(c2ccccc2)C(=O)/C1=C\N1CC(=O)NC1=S	99.5
CCS(=O)(=O)CCCl	105
